# assayed.system: OCT2 (Homo sapiens)
# Sequence (O15244 whole entry): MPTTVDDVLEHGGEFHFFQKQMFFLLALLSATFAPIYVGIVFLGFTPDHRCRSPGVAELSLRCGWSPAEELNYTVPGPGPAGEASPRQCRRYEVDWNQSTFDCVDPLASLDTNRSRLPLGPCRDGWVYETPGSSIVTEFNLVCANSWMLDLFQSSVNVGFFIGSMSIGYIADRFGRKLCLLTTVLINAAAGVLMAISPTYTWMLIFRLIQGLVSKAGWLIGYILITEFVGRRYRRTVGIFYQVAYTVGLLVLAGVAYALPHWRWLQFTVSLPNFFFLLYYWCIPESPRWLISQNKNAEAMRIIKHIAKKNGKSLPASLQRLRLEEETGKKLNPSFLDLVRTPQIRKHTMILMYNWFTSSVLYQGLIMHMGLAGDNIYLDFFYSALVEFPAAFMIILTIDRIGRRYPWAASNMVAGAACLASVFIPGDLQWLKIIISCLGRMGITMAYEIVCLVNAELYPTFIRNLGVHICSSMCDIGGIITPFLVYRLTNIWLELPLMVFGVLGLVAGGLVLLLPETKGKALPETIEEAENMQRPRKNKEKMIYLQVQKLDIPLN
# protocol.notes: SLC inhibition assay in HEK293 cells
# Type: in vitro ADME
# condition.notes: human, HEK293 cells overexpressing OCT2 (and MOCK cells), probe metformin
measured.parameter: activity at 0.2 µM

Record C=CC(=O)N1CCC([C@@H]2CCNc3c(C(N)=O)c(-c4ccc(Oc5ccccc5)cc4)nn32)CC1 , field activity at 0.2 µM: 339%

###

# assayed.system: P-gp (Homo sapiens, UniProt P08183)
# Sequence (P08183 whole entry): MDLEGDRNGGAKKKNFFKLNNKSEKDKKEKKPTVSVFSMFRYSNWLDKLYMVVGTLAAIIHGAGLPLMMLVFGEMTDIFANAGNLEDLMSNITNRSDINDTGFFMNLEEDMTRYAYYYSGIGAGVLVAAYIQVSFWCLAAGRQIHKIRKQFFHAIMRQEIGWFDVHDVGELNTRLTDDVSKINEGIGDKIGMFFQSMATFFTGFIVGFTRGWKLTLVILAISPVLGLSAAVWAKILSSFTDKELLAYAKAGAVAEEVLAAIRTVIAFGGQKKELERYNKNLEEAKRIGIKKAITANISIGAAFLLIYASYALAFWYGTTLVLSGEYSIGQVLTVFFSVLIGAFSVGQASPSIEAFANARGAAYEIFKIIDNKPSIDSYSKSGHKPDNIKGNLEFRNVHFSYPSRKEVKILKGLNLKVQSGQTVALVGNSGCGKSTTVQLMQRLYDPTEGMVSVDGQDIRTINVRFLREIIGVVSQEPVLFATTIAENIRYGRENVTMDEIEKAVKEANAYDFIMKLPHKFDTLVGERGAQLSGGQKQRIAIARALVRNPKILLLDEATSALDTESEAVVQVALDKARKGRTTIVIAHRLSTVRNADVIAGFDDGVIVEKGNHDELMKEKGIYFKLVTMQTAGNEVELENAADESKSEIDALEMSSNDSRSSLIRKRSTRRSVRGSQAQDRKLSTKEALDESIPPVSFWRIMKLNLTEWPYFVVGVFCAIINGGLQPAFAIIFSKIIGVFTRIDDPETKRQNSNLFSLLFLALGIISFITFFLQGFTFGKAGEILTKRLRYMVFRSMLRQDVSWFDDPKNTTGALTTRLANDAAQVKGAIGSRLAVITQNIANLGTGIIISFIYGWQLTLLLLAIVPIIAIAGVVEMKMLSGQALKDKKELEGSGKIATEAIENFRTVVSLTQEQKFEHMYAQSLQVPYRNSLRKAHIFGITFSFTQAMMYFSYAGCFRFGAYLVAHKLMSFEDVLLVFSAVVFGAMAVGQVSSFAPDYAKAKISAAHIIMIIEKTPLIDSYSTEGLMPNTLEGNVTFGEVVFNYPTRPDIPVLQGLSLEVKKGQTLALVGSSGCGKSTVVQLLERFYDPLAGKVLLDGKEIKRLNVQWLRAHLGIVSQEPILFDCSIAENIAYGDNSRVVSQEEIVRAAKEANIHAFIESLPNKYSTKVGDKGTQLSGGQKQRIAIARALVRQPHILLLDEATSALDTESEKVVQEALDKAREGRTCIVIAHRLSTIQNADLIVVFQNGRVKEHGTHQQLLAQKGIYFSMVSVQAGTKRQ
# protocol.notes: P-gp transportation in MDCK-MDR1 cells
# Assay type: in vitro ADME
# condition.notes: dog, MDCK-MDR1
measured.parameter: Papp B→A at 90 min, 10 µM (×10⁻⁶ cm/s)
The reply should contain only the number, in ×10⁻⁶ cm/s.

Record C=CC(=O)N1CCC([C@@H]2CCNc3c(C(N)=O)c(-c4ccc(Oc5ccccc5)cc4)nn32)CC1 [zanubrutinib] , field Papp B→A at 90 min, 10 µM: 47.9
